# target_or_test_system: Cytochrome P450 2D6 (Homo sapiens)
# Sequence (P10635 whole entry): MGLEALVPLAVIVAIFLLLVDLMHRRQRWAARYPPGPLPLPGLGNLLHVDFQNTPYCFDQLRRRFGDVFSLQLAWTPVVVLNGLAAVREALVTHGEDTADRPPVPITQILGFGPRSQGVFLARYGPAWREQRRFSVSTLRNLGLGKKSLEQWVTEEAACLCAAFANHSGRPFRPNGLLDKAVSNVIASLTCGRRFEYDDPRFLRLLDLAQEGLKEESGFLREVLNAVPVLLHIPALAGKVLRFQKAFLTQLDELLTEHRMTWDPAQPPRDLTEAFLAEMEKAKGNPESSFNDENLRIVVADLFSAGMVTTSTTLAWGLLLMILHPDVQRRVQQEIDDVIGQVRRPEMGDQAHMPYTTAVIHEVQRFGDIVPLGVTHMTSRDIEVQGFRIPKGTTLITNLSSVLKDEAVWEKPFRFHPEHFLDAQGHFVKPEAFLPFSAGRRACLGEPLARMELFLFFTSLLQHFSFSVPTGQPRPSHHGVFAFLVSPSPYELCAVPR
reported_property: pKi
Numbers only, as −log10 of the molar value.

State the recorded pKi for this entry: C=CC1CN2CCC1C[C@@H]2[C@@H](O)c1ccnc2ccccc12 (stereo in doubt; 10b)
5.03

* * *

# target_or_test_system: Cytochrome P450 2D6 (Homo sapiens)
# test_name: Inhibitory effect on Bufuralol 1'-hydroxylation by human liver microsomes (Ki = apparent inhibition constant)
# Assay type: ADME, Microsome
Please respond with reported Ki for every item in the list.

Please review the entries below; each comes with its answer.
> print(dat)
                                   compound  measured.result
1  O=C(O)[C@H]1[C@H]2C[C@H]3c4[nH]c5ccccc5c4CCN3C[C@@H]2CC[C@H]1O           6.3 µM
2                          COc1ccc2ncccc2c1        > 1000 µM
3  COC(=O)C1=CO[C@H](C)[C@H]2CN3CCc4c([nH]c5ccccc45)[C@@H]3C[C@H]12         0.017 µM
4  COC(=O)C1=CNC(C)C2CN3CCc4c([nH]c5ccccc45)[C@@H]3C[C@H]12 (stereo not given in full)           2.9 µM

Pending compound:
State the recorded Ki for this entry: CC[C@H]1CN2CC[C@H]1C[C@H]2[C@H](O)c1ccnc2ccc(OC)cc12 [HYDROQUININE]
4 µM
